- System: SF-268 CNS
- protocol_notes: NCI-60 one-dose screen, 48 h (100 = growth as untreated, 0 = no growth, -100 = all killed)
- assay_setup: 10 µM
This is part of a sample that, as a whole, favours compounds with a hit. Of some 83,000 tested, about 20% had one in any assay.
assay_endpoint: growth (%)

> print(dat)
                                    molecule  assay.endpoint  unit.of.measure  value
 1  CC1NC(=O)NC1CCCCCC(=O)O (stereo not given)          growth                %   96.5
 2                           Cc1ccncc1C(N)=O          growth                %   98.2
 3                             Cc1cccc(CO)c1          growth                %   95.4
 4                      Cc1cc(OCCO)cc(C)c1Cl          growth                %    109
 5  O=C(NC1CCCCC1)OCc1c(COC(=O)NC2CCCCC2)c(-c2ccc(Cl)c(Cl)c2)n2c1CCC2          growth                %   29.2
 6                       NC(=O)N/N=C\c1ccco1          growth                %    112
 7                  Cc1cc(C(C)(C)C)cc(C)c1Br          growth                %    102
 8             CCCCC/C=N/Nc1nc(C)cc(=O)[nH]1          growth                %    107
 9  CCC/C=C(\C)C(C)(C#N)C(=O)OCC (stereo not given)          growth                %    118
10     Clc1ccc(-c2n[nH]c3c2Cc2ccccc2-3)cc1Cl          growth                %    109

###

A collection of compounds and their measured growth
- Tested on: RXF 393 renal
- protocol_notes: NCI-60 one-dose screen, 48 h (100 = growth as untreated, 0 = no growth, -100 = all killed)
- assay_setup: 10 µM
- Procedure: Cells are grown in 96 well plates and exposed to the test compound for 48 hours. Compounds are tested at a single concentration, which is 10^-5 M for most compounds. The reported endpoint is percent growth (GI% or GIPRCNT), where numbers from 0 - 100% represent growth inhibition, and numbers from -100% - 0 represent cell death. For example, a value of 40 represents 60% growth inhibition. A value of 0 means no net growth occurred over the course of the experiment. […]
This is part of a sample that, as a whole, favours compounds with a hit. Of some 83,000 tested, about 20% had one in any assay.
assay_endpoint: growth (%)

> print(dat)
                                    compound  measured.target  unit.of.measure  value
 1                  COc1cc(OC)c2ccc(=O)oc2c1    RXF 393 renal                %    123
 2                 Cc1cc(NC(=O)CSCC(=O)O)no1    RXF 393 renal                %    103
 3                         O=C(O)CSCSCC(=O)O    RXF 393 renal                %     97
 4  Cc1cc2nc(CC(=O)c3cccc([N+](=O)[O-])c3)c(=O)[nH]c2cc1C    RXF 393 renal                %    107
 5      O=[N+]([O-])c1ccc(Cl)c(S(=O)(=O)O)c1    RXF 393 renal                %    126
 6  CC(=O)OCC1=CC2OC(=O)C3=COC(OC4OC(CO)C(O)C(O)C4O)C1C32 (centres undefined)    RXF 393 renal                %   36.8
 7                     CCOC(=O)CCCS(C)(=O)=O    RXF 393 renal                %    113
 8            C=CC(O)CCC (centres undefined)    RXF 393 renal                %    121
 9  C/C(=C\c1cc(Cl)ccc1OCC(=O)O)[N+](=O)[O-]    RXF 393 renal                %    134
10                            CC(C)CCCC(=O)O    RXF 393 renal                %     93
11                            CC(C)=NNC(N)=S    RXF 393 renal                %   93.1
12       O=[N+]([O-])c1ccccc1N=Nc1ccc(O)cc1O    RXF 393 renal                %    121
13           CCOc1ccc(/C=C/C(=O)c2ccccc2)cc1    RXF 393 renal                %   53.4
14  COc1ccc(C2OC(N)=C(O)C2=O)cc1OC (centres undefined)    RXF 393 renal                %    110
15   CNC(=O)c1ccccc1CC1(O)c2ccccc2Oc2ccccc21    RXF 393 renal                %   61.3
16  COc1cc(C(=O)NC(=S)Nc2ccc3ccccc3c2)cc(OC)c1OC    RXF 393 renal                %   94.5
17  CC(=O)OCC(=O)[C@@]1(O)CC[C@H]2[C@@H]3CC[C@@H]4C[C@H](O)CC[C@]4(C)[C@H]3C(=O)C[C@@]21C    RXF 393 renal                %   94.8
18   CCOc1ccc(Br)cc1/C=N\N=C\c1cc(Br)ccc1OCC    RXF 393 renal                %    145
19  COc1cc(CCN=Cc2ccccc2O)c([N+](=O)[O-])cc1OC    RXF 393 renal                %    111
20          CC(=O)N(C)c1ccc([N+](=O)[O-])cc1    RXF 393 renal                %    102
21                  Cc1cc(C)c(CC(=O)O)c(C)c1    RXF 393 renal                %    123
22          CCCCCCCCCCCCCC(=O)Oc1ccc[nH]c1=O    RXF 393 renal                %    113
23                        O/N=C/c1ccc(O)cc1O    RXF 393 renal                %    112
24          C/C(=N\NC(=O)c1ccccc1N)c1ccccc1O    RXF 393 renal                %   74.9
25  O=S(=O)(O)c1cc(O)c2c(N=Cc3ccccc3O)c(S(=O)(=O)O)ccc2c1    RXF 393 renal                %    105
26                           O=C(O)CCCC(=O)O    RXF 393 renal                %   99.5
27             CCCNC(=O)c1ccc(S(N)(=O)=O)cc1    RXF 393 renal                %    107
28             CCCCNC1(C#N)CCN(Cc2ccccc2)CC1    RXF 393 renal                %    107
29  CC1CCCCN1C(=S)Nc1ccc(S(=O)(=O)N2CCCCC2)cc1 (centres undefined)    RXF 393 renal                %    109
30                    CC(=O)c1c[nH]c2ccccc12    RXF 393 renal                %    104
31  O=[N+]([O-])c1ccc(-c2noc(-c3cccs3)n2)cc1    RXF 393 renal                %     92
32              O=C(O)c1cccc([N+](=O)[O-])c1    RXF 393 renal                %    117
33  CCCCC1(CC)COC(CCC)OC1 (centres undefined)    RXF 393 renal                %    101
34        CCN=c1cc2sc3cc(NCC)c(C)cc3nc-2cc1C    RXF 393 renal                %   74.7
35  c1cc[n+](C2c3ccccc3C([n+]3ccccc3)c3ccccc32)cc1 (centres undefined)    RXF 393 renal                %   61.6
36                          c1ncc2[nH]cnc2n1    RXF 393 renal                %    112
37  Cc1cc(/C=C/c2ccc3cc(N(C)C)ccc3[n+]2C)c(C)n1-c1ccccc1    RXF 393 renal                %  -96.2
38                       COC(=O)/C=C\C(=O)OC    RXF 393 renal                %    110
39   O=C(Nc1cc(-c2ccccc2)[nH]n1)c1ccc(Cl)cc1    RXF 393 renal                %   32.4
